Origin of values: patent US20240116985A1

Reported CHI Log D values for the following compounds.
# Procedure Summary: CHI Log D procedure
# Type: physicochemical
# Assay Setup: pH 7.4

Compound	CHI Log D
CC[C@@H]1NC(=O)[C@H](CC(=O)O)NC(=O)[C@]2(CC=CCCCC3(CCCC=CCCCCCC[C@@](C)(C(=O)N[C@@H](Cc4ccccc4)C(=O)N[C@@H](Cc4csc5ccccc45)C(=O)N[C@@H](Cc4c[nH]cn4)C(N)=O)NC(=O)[C@H](CCC(N)=O)NC(=O)[C@H](Cc4ccccc4)NC(=O)[C@H](C)NC(=O)[C@H](C)NC(=O)[C@H](CCC(=O)O)NC(=O)[C@H](CC(=O)O)NC3=O)NC1=O)CCCN2C(C)=O (stereo partly drawn) [I-570]	2.219
CC(=O)N1CCC[C@]12CC=CCCCC1(CCCC=CCCCCCC[C@@](C)(C(=O)N[C@@H](Cc3ccccc3)C(=O)N[C@@H](Cc3c[nH]c4ccccc34)C(=O)N[C@@H](CCC(N)=O)C(N)=O)NC(=O)[C@H](C(C)C)NC(=O)[C@H](Cc3ccco3)NC(=O)[C@H](C)NC(=O)[C@H](C)NC(=O)[C@H](CC(=O)O)NC(=O)[C@H](CC(=O)O)NC1=O)NC(=O)[C@H](C)NC(=O)[C@H](CC(=O)O)NC2=O (stereo partly drawn) [I-327]	1.958
CC[C@H](C)[C@@H]1NC(=O)[C@H](CC(=O)O)NC(=O)[C@]2(CC=CCCCC3(CCCC=CCCCCCC[C@@](C)(C(=O)N[C@@H](Cc4ccccc4)C(=O)N[C@@H](Cc4csc5ccccc45)C(=O)N[C@H](C(N)=O)[C@@H](C)O)NC(=O)[C@H](CCC(N)=O)NC(=O)[C@H](Cc4ccccc4)NC(=O)[C@H](C)NC(=O)[C@H](C)NC(=O)[C@H](CCC(=O)O)NC(=O)[C@H](CC(=O)O)NC3=O)NC1=O)CCCN2C(C)=O (stereo partly drawn) [I-642]	2.512

* * *

Reported IC50 values for the following molecules.
# Target Under Test: full-length beta-Catenin (Uniprot ID P35222) (Homo sapiens)
# Construct: 10 nM full-length beta-Catenin (Uniprot ID P35222)
# Sequence (P35222 1-781): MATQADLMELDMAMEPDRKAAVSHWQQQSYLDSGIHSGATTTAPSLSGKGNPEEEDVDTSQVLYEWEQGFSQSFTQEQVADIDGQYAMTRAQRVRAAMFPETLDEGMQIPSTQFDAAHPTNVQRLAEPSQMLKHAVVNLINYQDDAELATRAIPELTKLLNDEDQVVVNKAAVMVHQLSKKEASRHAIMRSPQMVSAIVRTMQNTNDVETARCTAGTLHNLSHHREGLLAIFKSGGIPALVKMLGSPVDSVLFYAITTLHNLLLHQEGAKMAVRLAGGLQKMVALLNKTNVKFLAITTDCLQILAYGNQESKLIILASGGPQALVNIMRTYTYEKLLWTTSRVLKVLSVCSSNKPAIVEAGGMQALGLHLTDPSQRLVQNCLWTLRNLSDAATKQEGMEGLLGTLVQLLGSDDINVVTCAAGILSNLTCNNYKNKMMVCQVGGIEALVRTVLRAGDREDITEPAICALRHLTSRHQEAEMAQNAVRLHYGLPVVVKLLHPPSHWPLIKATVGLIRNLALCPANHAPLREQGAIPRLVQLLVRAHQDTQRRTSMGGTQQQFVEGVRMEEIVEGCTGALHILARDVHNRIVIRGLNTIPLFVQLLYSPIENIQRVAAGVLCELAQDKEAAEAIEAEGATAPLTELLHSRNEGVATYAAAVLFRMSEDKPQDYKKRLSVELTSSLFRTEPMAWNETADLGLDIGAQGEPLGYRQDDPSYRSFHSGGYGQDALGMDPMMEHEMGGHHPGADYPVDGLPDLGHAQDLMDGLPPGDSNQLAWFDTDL
# Procedure Summary: Fluorescence polarization IC50 (beta-catenin / 5FAM-TCF4 10-53 competition)
# Type: binding
# Assay Setup: fluorescence polarization; read-out: beta-Catenin FP IC50
Measurement Label: IC50 (nM)

Molecule	Measurement Label	Assay Result
CC(=O)N1CCC[C@]12CC=CCCCC1(CCCC=CCCCOC(=O)N3CC[C@@](C(=O)N[C@@H](Cc4ccccc4Cl)C(=O)N[C@@H](Cc4csc5ccccc45)C(=O)N[C@H](C(N)=O)[C@@H](C)O)(C3)NC(=O)[C@H](CC(C)C)NC(=O)[C@H](Cc3ccccc3)NC(=O)[C@H](C)NC(=O)[C@H](C)NC(=O)[C@H](CC(=O)O)NC(=O)[C@H](CC(=O)O)NC1=O)NC(=O)[C@H](CC1CCCCC1)NC(=O)[C@H](CC(=O)O)NC2=O (some centres unmarked) [I-1139]	IC50	22
CC(=O)N1CCC[C@]12CC=CCCCC1(CCCC=CCCCOC(=O)N3CC[C@@](C(=O)N[C@@H](Cc4ccccc4C(F)(F)F)C(=O)N[C@@H](Cc4csc5ccccc45)C(=O)N[C@@H](CCC(=O)N4CCOCC4)C(N)=O)(C3)NC(=O)[C@H](CCC(=O)N3CCOCC3)NC(=O)[C@H](Cc3ccccc3)NC(=O)[C@H](C)NC(=O)[C@H](C)NC(=O)[C@H](Cc3cccc(C(=O)O)c3)NC(=O)[C@H](CC(=O)O)NC1=O)NC(=O)[C@H](CC(C)(C)C)NC(=O)[C@H](CC(=O)O)NC2=O (some centres unmarked) [I-2546]	IC50	13
